All figures here come from ChEMBL document CHEMBL5321289.

# System: HeLa
# test-description: Cytotoxicity against human HeLa cells overexpressing MR1 assessed as reduction in cell viability at 3 to 100 uM incubated for 24 hrs by MTS assay
# Assay type: toxicity, cell-based
# cond: dose 3-100 µM
property-measured: Activity

Please review the entries below; each comes with its answer.
COc1cc(/C=C/C=O)ccc1O Non-Toxic
COc1cc(O)ccc1/C=C/C=O Non-Toxic
O=C/C=C/c1ccc(O)c(O)c1 Non-Toxic
Nc1nc2ncc(C=O)nc2c(=O)[nH]1 Non-Toxic
CC(=O)Nc1nc(O)c2nc(C=O)cnc2n1 Non-Toxic

q: Give its Activity value. Item: "COc1cc(/C=C/C=O)c(OC)cc1O"
a: Non-Toxic

====

# test-description: Cytotoxicity against mouse TG40 cells transfected with MAIT-alpha/betaTCR assessed as reduction in cell viability at 30 to 100 uM incubated for 24 hrs by MTS assay
# Format: toxicity, cell-based
# cond: dose 30-100 µM
property-measured: Activity

Please review the entries below; each comes with its answer.
COc1cc(O)ccc1/C=C/C=O Toxic
COc1cc(/C=C/C=O)c(OC)cc1O Toxic
COc1cc(/C=C/C=O)ccc1O Toxic
CC(=O)Nc1nc(O)c2nc(C=O)cnc2n1 Toxic

q: Give its Activity value. Item: "Nc1nc2ncc(C=O)nc2c(=O)[nH]1"
a: Toxic

q: Also check "O=C/C=C/c1ccc(O)c(O)c1"
a: Toxic
